# Tested on: RAW-Dual
# protocol.details: NF-kB SEAP reporter activity, fold change vs agonist alone; cytotoxicity flag (confluency mask): not cytotoxic; higher = enhanced NF-kB activity
# condition: agonist: ODN 1826 (TLR9) 0.5 ug/mL
In all, about 2,900 compounds were measured (“NF-kB SEAP reporter activity, fold change vs agonist alone”: median about 0.99, highest 2% from about 2.6 on). The sample as a whole holds a higher share of the highest values than the screen did.
Please note: 1 applies when NF-kB SEAP reporter activity is 1 or greater, and 0 applies otherwise.

Use these answered entries as a reference point.
compound	classification
CC(C)(F)CC(NC(c1ccc(-c2ccc(S(C)(=O)=O)cc2)cc1)C(F)(F)F)C(=O)NC1(C#N)CC1 (stereo not given) (library stock concentration (final ~1000-fold dilution): 10 mM)	1
CN1CCc2c(c3ccccc3n2Cc2ccc(C(=O)NO)cc2)C1 (library stock concentration (final ~1000-fold dilution): 10 mM)	1
Cn1ncc(Cl)c1-c1cc(C(=O)NC(CN)Cc2ccc(F)c(F)c2)oc1Cl (stereo not given) (library stock concentration (final ~1000-fold dilution): 10 mM)	1

Request: Please indicate if the recorded NF-kB SEAP reporter activity for Cn1cc(/C=C/C(=O)c2cccc(F)c2)cc1/C=C/C(=O)NO (library stock concentration (final ~1000-fold dilution): 10 mM) meets or exceeds 1.
Response: 0

====

# Test system: RAW-Dual
# protocol.details: NF-kB SEAP reporter activity, fold change vs agonist alone; cytotoxicity flag (confluency mask): not cytotoxic; higher = enhanced NF-kB activity
# condition: agonist: Pam3CSK4 (TLR2/1) 0.1 ug/mL
Whole data set: some 2,900 compounds, median “NF-kB SEAP reporter activity, fold change vs agonist alone” near 0.99, cut for the highest 2% near 2.6. For the sample, the highest values were picked, then their nearest neighbours and some compounds at random.
For each record, write down the corresponding NF-kB SEAP reporter activity.
One number for each entry.

Here's what some known entries look like.
compound	NF-kB SEAP reporter activity
NC(=O)c1ccc2[nH]c(-c3ccc(Oc4ccc(Cl)cc4)cc3)nc2c1 (library stock concentration (final ~1000-fold dilution): 10 mM)	3.55
COc1ccc(-c2nc3cc(C4=NNC(=O)CC4C)ccc3[nH]2)cc1 (stereo not drawn) (library stock concentration (final ~1000-fold dilution): 10 mM)	1.7

Query compound follows.
Request: Requested field: NF-kB SEAP reporter activity. Item: COC1/C=C/OC2(C)Oc3c(C)c(O)c4c(O)c(c(/C=N/N5CCN(C)CC5)c(O)c4c3C2=O)NC(=O)/C(C)=C/C=C/C(C)C(O)C(C)C(O)C(C)C(OC(C)=O)C1C (stereo not drawn) (library stock concentration (final ~1000-fold dilution): 10 mM)
Response: 0.892

====

# Test system: RAW-Dual
# protocol.details: NF-kB SEAP reporter activity, fold change vs agonist alone; cytotoxicity flag (confluency mask): not cytotoxic; higher = enhanced NF-kB activity
# condition: agonist: LPS (TLR4) 0.1 ug/mL
Whole data set: some 2,900 compounds, median “NF-kB SEAP reporter activity, fold change vs agonist alone” near 0.99, cut for the highest 2% near 2.6. Shown is part of a subset that was picked to be rich in the highest values.
Quick rule: NF-kB SEAP reporter activity of at least 1 means label 1, below that means label 0.

// below: answered compounds
compound	target.desc	classification
O=C(/C=C/c1ccccc1)NC(NC(=S)Nc1cccc2cccnc12)C(Cl)(Cl)Cl (stereo unspecified) (library stock concentration (final ~1000-fold dilution): 10 mM)	RAW-Dual	label 0
C=CC(=O)Nc1cccc(Nc2nc(Nc3ccc(OCCOC)cc3)ncc2F)c1 (library stock concentration (final ~1000-fold dilution): 10 mM)	RAW-Dual	label 1
CC12CCC(O)CC1=CCC1C2CCC2(C)C(C(O)CC(O)(C(F)(F)F)C(F)(F)F)CCC12 (stereo unspecified) (library stock concentration (final ~1000-fold dilution): 10 mM)	RAW-Dual	label 0
CCOC(=O)Nc1cc(-c2ccc(C)c(NS(C)(=O)=O)c2)nn2c(C)nnc12 (library stock concentration (final ~1000-fold dilution): 10 mM)	RAW-Dual	label 1

Request: hey, is NF-kB SEAP reporter activity for this one >= 1? CNC1CN(c2ccc3c(=O)c(C(=O)O)cn(-c4nccs4)c3n2)CC1OC.Cl (stereo unspecified) (library stock concentration (final ~1000-fold dilution): 2 mM)
Response: label 1

Request: Dear colleague, could you confirm whether COC1C(=O)C2(C)C(OC)CC3OCC3(OC(C)=O)C2C(OC(=O)c2ccccc2)C2(O)CC(OC(=O)C(O)C(NC(=O)OC(C)(C)C)c3ccccc3)C(C)=C1C2(C)C (stereo unspecified) (library stock concentration (final ~1000-fold dilution): 10 mM) has NF-kB SEAP reporter activity at or above 1?
Response: label 1

Request: Decide: is the reported value of NF-kB SEAP reporter activity for Cc1noc(C)c1-c1ccc2[nH]c(=O)n3c2c1OCC3c1ccccn1 (stereo unspecified) (library stock concentration (final ~1000-fold dilution): 10 mM) equal to or greater than 1?
Response: label 1

Request: Check this compound for NF-kB SEAP reporter activity at or above 1: Cc1ccc(/C=N/NC(=O)c2ccccc2Oc2ccccc2)o1 (library stock concentration (final ~1000-fold dilution): 10 mM)
Response: label 1

Request: // inclusive: NF-kB SEAP reporter activity at least 1? input: Cc1nccn1CC1CCc2c(c3ccccc3n2C)C1=O.Cl (stereo unspecified) (library stock concentration (final ~1000-fold dilution): 10 mM)
Response: label 0

Request: Quick check, NF-kB SEAP reporter activity >= 1? CC1(C)SC2CC(=O)N2C1C(=O)OCOC(=O)C1N2C(=O)C(NC(=O)C(N)c3ccccc3)C2S(=O)(=O)C1(C)C.Cc1ccc(S(=O)(=O)O)cc1 (stereo unspecified) (library stock concentration (final ~1000-fold dilution): 10 mM)
Response: label 1

Request: Given the entry O=C1CN(/N=C/c2ccc([N+](=O)[O-])o2)C(=O)N1 (library stock concentration (final ~1000-fold dilution): 10 mM) , answer whether its NF-kB SEAP reporter activity meets or surpasses 1.
Response: label 1

====

# Test system: RAW-Dual
# protocol.details: NF-kB SEAP reporter activity, fold change vs agonist alone; cytotoxicity flag (confluency mask): cytotoxic (confluency <70% of control); higher = enhanced NF-kB activity
# condition: agonist: Pam3CSK4 (TLR2/1) 0.1 ug/mL
In all, about 2,900 compounds were measured (“NF-kB SEAP reporter activity, fold change vs agonist alone”: median about 0.99, highest 2% from about 2.6 on). Only a selection was taken, and the highest values are over-represented in it overall.
observed.property: NF-kB SEAP reporter activity

compound	NF-kB SEAP reporter activity
OC1C=C2CCN3Cc4cc5c(cc4C(C1O)C23)OCO5 (centres undefined) (library stock concentration (final ~1000-fold dilution): 10 mM)	0.552
COc1ccc(C(=O)C=Cc2cc(OC)c(OC)c(OC)c2)cc1OC (library stock concentration (final ~1000-fold dilution): 20 mM)	0.176
CCN(CC)CCCCNc1ncc2cc(-c3cc(OC)cc(OC)c3)c(NC(=O)NC(C)(C)C)nc2n1 (library stock concentration (final ~1000-fold dilution): 10 mM)	1.56
COc1cc2nc(N3CCCN(C)CC3)nc(NC3CCN(Cc4ccccc4)CC3)c2cc1OC.Cl.Cl.Cl (library stock concentration (final ~1000-fold dilution): 10 mM)	0.13
CCCCc1nc(-c2ccc(OCCCN(CC)CC)cc2)cn1-c1ccc(Oc2ccc(Cl)cc2)cc1 (library stock concentration (final ~1000-fold dilution): 10 mM)	0.192

Here are 8 compounds. What values of NF-kB SEAP reporter activity were reported for them?
1. O=C(/C=C/c1cccc(S(=O)(=O)Nc2ccccc2)c1)NO (library stock concentration (final ~1000-fold dilution): 10 mM)
2. O=C(NC1(c2ccccc2)CC1)c1c(CN2CCC(N3CCCCC3)CC2)c(-c2cccc(C(F)(F)F)c2)nc2cc(Br)ccc12 (library stock concentration (final ~1000-fold dilution): 10 mM)
3. Cc1ccc(Oc2ccnc3cc(-c4cnn(C5CCNCC5)c4)ccc23)cc1 (library stock concentration (final ~1000-fold dilution): 10 mM)
4. CCn1cc(-c2cccc(C(F)(F)F)c2)c2sc(C(=N)NC3CCS(=O)(=O)CC3)cc2c1=O (library stock concentration (final ~1000-fold dilution): 10 mM)
5. CCCCc1nc2cc(/C=C/C(=O)NO)ccc2n1CCN(CC)CC (library stock concentration (final ~1000-fold dilution): 10 mM)
6. Cc1[nH]c2ccccc2c1CCNCc1ccc(/C=C/C(=O)NO)cc1 (library stock concentration (final ~1000-fold dilution): 10 mM)
7. O=C(CCCCCCNC(=O)c1cnc(N(c2ccccc2)c2ccccc2Cl)nc1)NO (library stock concentration (final ~1000-fold dilution): 10 mM)
8. O=C(Nc1ccc2[nH]nc(-c3ccc4[nH]ccc4c3)c2c1)c1c(Cl)cccc1Cl (library stock concentration (final ~1000-fold dilution): 10 mM)

Response:
1. 1.76
2. 1.27
3. 0.175
4. 1.12
5. 1.99
6. 1.47
7. 1.47
8. 0.202

Request: Return reported NF-kB SEAP reporter activity; argument: C=CC(=O)N1CCC(Oc2nc(Nc3ccc(N4CCC(N5CCN(C)CC5)CC4)cc3)c(C(N)=O)nc2CC)C1 (centres undefined) (library stock concentration (final ~1000-fold dilution): 10 mM)
Response: 0.542
